B1: library; numbered along this chain (parent)
chain: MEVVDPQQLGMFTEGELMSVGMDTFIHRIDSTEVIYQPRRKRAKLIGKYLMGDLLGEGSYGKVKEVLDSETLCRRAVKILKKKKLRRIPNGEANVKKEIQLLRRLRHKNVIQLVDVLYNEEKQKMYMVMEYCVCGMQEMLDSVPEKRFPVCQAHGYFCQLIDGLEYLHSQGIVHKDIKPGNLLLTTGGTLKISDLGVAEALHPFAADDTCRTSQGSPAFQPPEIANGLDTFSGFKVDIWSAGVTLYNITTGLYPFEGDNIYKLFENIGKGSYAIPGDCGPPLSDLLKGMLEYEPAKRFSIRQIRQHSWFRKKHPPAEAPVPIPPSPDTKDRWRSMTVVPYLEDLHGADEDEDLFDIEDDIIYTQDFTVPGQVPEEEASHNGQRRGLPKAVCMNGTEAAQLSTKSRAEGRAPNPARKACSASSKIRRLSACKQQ

Variants of: B1
Test: STK11 functional score (HeLa growth suppression), rescaled enrichment; synonymous median = 1, nonsense median = 0 (normalised score)
Details: with HeLa; variant type: missense
Catalogue of STK11 functional score readings, one per entry.
property_label: STK11 functional score

>>> print(df.to_string())
    changes  readout_number
 0    D162I            1.05
 1    A295I            1.35
 2     L17F           0.925
 3    L113G           0.252
 4    I111T           0.687
 5     K48P            1.41
 6     R75K            1.51
 7     Q37W           0.288
 8    G251A           0.598
 9      Q7A               1
10    A318R            1.43
